# tested-system: α4β1 integrin (Homo sapiens (Human), UniProt P05556+P13612)
# Sequence (P13612 34-1032): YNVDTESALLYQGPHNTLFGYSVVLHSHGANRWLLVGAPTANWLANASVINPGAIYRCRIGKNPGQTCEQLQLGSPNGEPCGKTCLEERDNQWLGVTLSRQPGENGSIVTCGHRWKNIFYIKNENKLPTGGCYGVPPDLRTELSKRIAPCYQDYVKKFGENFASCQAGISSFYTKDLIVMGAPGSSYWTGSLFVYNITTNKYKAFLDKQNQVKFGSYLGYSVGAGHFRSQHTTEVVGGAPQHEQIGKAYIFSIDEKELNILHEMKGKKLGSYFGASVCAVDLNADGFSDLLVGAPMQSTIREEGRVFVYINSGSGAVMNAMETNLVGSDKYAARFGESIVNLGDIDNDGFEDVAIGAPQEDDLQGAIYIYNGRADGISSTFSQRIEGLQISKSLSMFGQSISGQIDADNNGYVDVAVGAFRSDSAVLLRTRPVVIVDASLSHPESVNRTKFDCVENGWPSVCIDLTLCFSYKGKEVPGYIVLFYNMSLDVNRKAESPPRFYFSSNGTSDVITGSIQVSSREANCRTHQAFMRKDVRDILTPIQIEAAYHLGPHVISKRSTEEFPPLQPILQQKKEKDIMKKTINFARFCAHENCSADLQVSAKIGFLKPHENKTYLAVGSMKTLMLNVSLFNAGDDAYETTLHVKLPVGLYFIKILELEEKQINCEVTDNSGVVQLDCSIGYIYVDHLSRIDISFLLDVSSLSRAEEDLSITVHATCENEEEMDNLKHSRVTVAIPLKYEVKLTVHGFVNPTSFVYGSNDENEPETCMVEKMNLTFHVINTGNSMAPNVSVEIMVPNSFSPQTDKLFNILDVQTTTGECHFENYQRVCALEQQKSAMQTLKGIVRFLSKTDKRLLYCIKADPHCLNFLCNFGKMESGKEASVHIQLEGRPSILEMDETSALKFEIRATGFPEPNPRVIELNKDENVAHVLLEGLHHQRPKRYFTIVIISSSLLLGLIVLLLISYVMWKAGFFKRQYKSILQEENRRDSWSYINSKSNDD
# Sequence (P05556 21-798): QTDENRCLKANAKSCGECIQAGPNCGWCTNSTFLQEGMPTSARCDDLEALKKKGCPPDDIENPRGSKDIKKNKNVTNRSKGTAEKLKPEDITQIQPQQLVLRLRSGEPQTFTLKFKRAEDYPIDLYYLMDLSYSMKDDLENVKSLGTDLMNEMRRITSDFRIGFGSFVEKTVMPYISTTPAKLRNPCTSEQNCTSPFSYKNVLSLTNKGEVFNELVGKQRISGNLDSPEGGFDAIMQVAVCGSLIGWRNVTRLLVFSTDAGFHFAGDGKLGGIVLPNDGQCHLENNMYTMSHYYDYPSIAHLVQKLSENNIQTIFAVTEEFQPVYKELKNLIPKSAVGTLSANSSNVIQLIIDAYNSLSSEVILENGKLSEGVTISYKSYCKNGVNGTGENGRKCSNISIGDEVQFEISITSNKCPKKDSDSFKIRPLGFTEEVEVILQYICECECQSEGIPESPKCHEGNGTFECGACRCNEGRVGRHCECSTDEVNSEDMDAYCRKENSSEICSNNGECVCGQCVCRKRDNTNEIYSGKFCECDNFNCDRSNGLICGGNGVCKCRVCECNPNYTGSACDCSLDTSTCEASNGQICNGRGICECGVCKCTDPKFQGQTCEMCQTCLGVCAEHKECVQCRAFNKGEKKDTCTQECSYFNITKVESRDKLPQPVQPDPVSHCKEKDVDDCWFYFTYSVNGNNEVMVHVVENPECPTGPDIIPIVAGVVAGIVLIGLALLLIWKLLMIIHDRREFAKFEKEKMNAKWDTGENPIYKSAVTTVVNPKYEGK
# measurement-description: Integrin Adhesion Assay: Protocol 5 (VCAM-coated plate, RPMI-8866 cells with stable LOF mutation of the ITGB7 gene)
# Assay type: cell-based
# experimental-parameters: RPMI-8866 cells with stable LOF mutation of the ITGB7 gene; read-out: Mean IC50 α4β1 KO^b

smiles-repr | IC50
COc1cccc(CN2CCCCC2)c1-c1cccc2c(C[C@H](NC(=O)c3c(F)cccc3C(F)(F)F)C(=O)O)cccc12 | 100 to 1000 nM
CN(C)Cc1cccc2c(-c3cccc4c(C[C@H](NC(=O)C5(C(F)(F)F)CCN([C@H]6CCOC6)CC5)C(=O)O)cccc34)nccc12 | 100 to 1000 nM
COCCN(C)c1cc(F)c(C(=O)N[C@@H](Cc2cccc3c(-c4c(C(F)(F)F)c5ccccc5n(C)c4=O)cccc23)C(=O)O)c(F)c1 | > 1000 nM

Attribution: patent US20250313535A1
